Listed here are compounds together with their documented GI50.
# Tested on: SK-MEL-2 melanoma
# assay.notes: NCI tumour cell line growth inhibition, 48 h

INSERT INTO measurements (compound, reported_measurement) VALUES
  ('Cc1c2c(nn1-c1ccc(S(=O)(=O)NC(=S)Nc3ccccc3)cc1)-c1ccccc1CC2', '> 50 µM'),
  ('O=C1NCc2ccc3c(-c4cccc(Cl)c4)c[nH]c3c21', '0.317 µM');

Q. Write down the reported GI50 of CCOc1cc2ncc(C#N)c(Nc3ccc(OCc4cccc(F)c4)c(Cl)c3)c2cc1NC(=O)CC1CCSS1 (stereo unspecified) , test system: SK-MEL-2 melanoma.
A. 0.99 µM

Q. What about C=C1C(=O)O[C@H]2[C@H]1CC/C(COC(=O)c1cc3cc(F)ccc3[nH]1)=C\CC[C@@]1(C)O[C@@H]21 ?
A. 1.95 µM

Q. What about CC(=O)O[C@H]1CC[C@@]2(C)C(=CC[C@@H]3[C@@H]2CC[C@]2(C)C(c4cccnc4)=CC[C@@H]32)C1 ?
A. > 100 µM

Q. What about COc1cc2c(cc1OC)C(=O)/C(=C/c1cccc(OCC(=O)c3ccccc3)c1)C2 ?
A. 10.2 µM

Q. What about O=C(Oc1ccc(Cl)cc1Cl)c1ccccc1Nc1ccnc(C(F)(F)F)c1 ?
A. 20.5 µM

Q. What about CNC(P(=O)([O-])[O-])P(=O)([O-])[O-].N.N.[Pt+2] ?
A. > 100 µM

----------
# System: SN12C renal
# assay.notes: NCI tumour cell line growth inhibition, 48 h
readout.label: TGI

INSERT INTO results (compound, readout_label, reported_measurement) VALUES
  ('Cn1c(=O)c2c(nc(NCCCCl)n2CC(=O)O)n(C)c1=O', 'TGI', '> 100 µM'),
  ('Cc1nc2ccc(S(=O)(=O)Nc3ccc(Cl)cc3)cc2c(=O)n1NC(=O)CNc1ccc(Cl)cc1', 'TGI', '> 100 µM');

Here is another compound to look at.
Q. Field request: TGI | item: O=C(c1ccccc1)C(c1ccccc1)C1(O)C(=O)Nc2c(Cl)cc(Cl)cc21 (configuration not stated)
A. > 100 µM

----------
Listed here are molecules together with their documented TGI.
# Tested on: MALME-3M melanoma
# assay.notes: NCI tumour cell line growth inhibition, 48 h

INSERT INTO assay_data (molecule, reported_measurement) VALUES
  ('N=C1C(c2nc(-c3ccc(Br)cc3)cs2)=C(O)CN1Cc1cccnc1', '> 100 µM'),
  ('O=C(CNc1nncs1)NO', '> 100 µM'),
  ('COc1ccc2c(c1)OC(c1cccnc1)C(c1ccccc1)C2=O (configuration not stated)', '> 100 µM'),
  ('CCOC(=O)C(=O)Nc1nc2c(s1)C(=O)c1ccccc1C2=O', '25.8 µM'),
  ('Cc1cc(-c2ncc(CC(=O)Nc3ccc(-c4cnccn4)cn3)cc2C)ccn1', '> 100 µM'),
  ('Oc1ccc(/C=C\c2nnc(/C=C\c3ccc(O)c(O)c3)s2)cc1O', '17.7 µM'),
  ('NCCC(N)C(=O)O (configuration not stated)', '> 100 µM'),
  ('CC(=O)C(C(C)=O)=C1CCCC(O)O1 (configuration not stated)', '> 100 µM');

Q. Write down the reported TGI of Cc1ccc(C(=O)N(C2CCCCC2)C2CCCCC2)cc1N=NN(C)C , test system: MALME-3M melanoma.
A. 31 µM

Q. What about Nc1nc(SCc2ccccn2)c2ncn(C3CCCC3)c2n1 ?
A. > 100 µM

Q. What about Cc1cc(C)nc(NS(=O)(=O)c2ccc(Nc3c4ccccc4nc4c(C(=O)Nc5ccc(S(=O)(=O)N=C(N)N)cc5)ccc(Cl)c34)cc2)n1 ?
A. > 100 µM

Q. What about COc1cc([C@H]2c3cc4c(cc3O[C@@]3(O)COC(=O)[C@@H]23)OCO4)cc(OC)c1OC ?
A. > 100 µM

Q. What about CC(C)/C(Cl)=N/OC(=O)Nc1ccc(F)c(Cl)c1 ?
A. 4.08 µM

Q. What about COC(=O)C12Oc3ccc(-c4ccc5c(c4O)C(=O)C4=CCC(C)C(O)C4(C(=O)OC)O5)c(O)c3C(=O)C1=CCC(C)C2O (configuration not stated) ?
A. 3.28 µM

Q. What about CC(=O)c1ccc(N=Nc2ccc3nonc3c2N)cc1 ?
A. > 100 µM

Q. What about COC(=O)Cc1ccc2c(c1)Sc1ccc(CC(=O)OC)cc1N2C ?
A. 80.6 µM

Q. What about c1ccc(CNc2c3c(nc4ccccc24)CCC3)cc1 ?
A. 33.4 µM

Q. What about CCOc1ccccc1NC(=O)C(=O)CC(=O)c1c(C)n([O-])c2ccccc2[n+]1=O ?
A. > 100 µM

Q. What about OC(C1CCC=NN1C(O)(C(F)(F)F)C(F)(F)F)(C(F)(F)F)C(F)(F)F (configuration not stated) ?
A. > 10 µM

Q. What about CC1=C(C(=O)Nc2ccccc2C)C(c2ccccc2)C(C(=O)Nc2ccccc2C)=C(C)N1 ?
A. > 100 µM

Q. What about CC(=O)Nc1ccc2c(c1)c(C1=C(c3cn(C)c4ccccc34)C(=O)NC1=O)cn2C ?
A. > 25 µM

Q. What about O=C(CN1CCN(c2ncccn2)CC1)Nc1ccc(Cl)cc1C(=O)c1ccccc1Cl ?
A. > 100 µM

Q. What about CS(=O)(=O)CCNCc1nc(-c2ccc3ncnc(Nc4ccc(F)c(Cl)c4)c3c2)cs1 ?
A. > 25 µM

Q. What about CCNC(=O)Nc1cccc(C)n1 ?
A. > 100 µM

----------
# Test system: SK-OV-3 ovarian
# assay.notes: NCI tumour cell line growth inhibition, 48 h
readout.label: TGI

Example entries and their recorded answers appear below.
INSERT INTO results (molecule, readout_label, reported_measurement) VALUES
  ('CSc1c(C(=O)Nc2ccccc2)c(N)nn1-c1ccccc1', 'TGI', '> 100 µM'),
  ('CC(C)(CN)CN', 'TGI', '> 100 µM'),
  ('Cc1ccc(OCC(=O)N2N=C(c3ccccc3)CC2(O)c2ccccc2)cc1 (centres undefined)', 'TGI', '> 100 µM'),
  ('COc1ccc2c3c1OC1CC(O)C=CC31CCN(C)C2 (centres undefined)', 'TGI', '> 150 µM'),
  ('C=CCn1c2c(c3ccccc3c1=O)C(=O)c1ccccc1-2', 'TGI', '> 100 µM');

Q. Field request: TGI | item: CC(C)/C(Cl)=N/OC(=O)Nc1ccc(F)c(Cl)c1
A. 30 µM

Q. What about O=c1[nH]nc(Cc2ccccc2)n1/N=C/c1c[nH]c2ccccc12 ?
A. > 100 µM

Q. What about S=C1c2ccccc2NC(=NC2CCCC2)C2CSCN12 (centres undefined) ?
A. > 100 µM

Q. What about CC(=O)NCCCCNCCCNC(C)=O ?
A. > 100 µM

----------
Listed here are compounds together with their documented TGI.
# System: PC-3 prostate
# assay.notes: NCI tumour cell line growth inhibition, 48 h
Form entry: value (µM) — number only.

Example entries and their recorded answers appear below.
INSERT INTO results (compound, experimental_system, reported_measurement) VALUES
  ('C=CC[C@H]1[C@@H](O[Si](C)(C)C(C)(C)C)[C@H](n2ccc(=O)[nH]c2=O)O[C@@H]1CO[Si](C)(C)C(C)(C)C', 'PC-3 prostate', 5.89),
  ('COc1ccc(N=C2CSc3nnc(-c4cc(F)c(Cl)cc4Cl)n3N2)cc1', 'PC-3 prostate', 13.9);

Q. Field request: TGI | item: CCN(CC)CCOc1nc2ccc(OC)cc2c2c1-c1ccc(OC)cc1C2=O
A. 2.91

Q. What about COc1ccc2[nH]c(C(=O)N3CC(CCl)c4ccc(N)cc43)cc2c1 (stereo not given) ?
A. 10

Q. What about C=C1CC2(OC1=O)C(=O)N(CCCCCCCN1C(=O)C3(CC(=C)C(=O)O3)c3ccccc31)c1ccccc12 (stereo not given) ?
A. 6.58

----------
Listed here are molecules together with their documented TGI.
# System: NCI-H23 lung
# assay.notes: NCI tumour cell line growth inhibition, 48 h
Form entry: value (µM) — number only.

Example entries and their recorded answers appear below.
INSERT INTO assay_data (molecule, reading_unit, reported_measurement) VALUES
  ('COC(=O)C12Oc3ccc(-c4ccc5c(c4O)C(=O)C4=CCC(C)C(O)C4(C(=O)OC)O5)c(O)c3C(=O)C1=CCC(C)C2O (centres undefined)', 'µM', 2.83),
  ('CC(C)(C)OC(=O)n1cc(C2CNC(=O)C23CCC(=O)N3Cc2ccccc2)c2ccccc21 (centres undefined)', 'µM', 57.1),
  ('Cc1ccc([N+](=O)[O-])cc1S(=O)(=O)Nc1ccc(C2=NN(c3ccc([N+](=O)[O-])cc3[N+](=O)[O-])C(c3ccccc3)C2)cc1 (centres undefined)', 'µM', 31.5);

Q. Field request: TGI | item: Cc1ccc(CNc2c3ccccc3nc3ccccc23)cc1
A. 4.04
